test: Approximate solubility in solvents at 25° C. and 50° C. by visual observation
Format: physicochemical
assay.setup: organic solvent or mixture, thermodynamic from solid; Heptanes, 25° C.; read-out: Solubility
quantity.name: Solubility

# lookup: Solubility of CCOC(=O)[C@H](C)NP(=O)(COCCn1cnc2c(OC)nc(N)nc21)OCc1ccccc1 (stereo partly shown)
< 2000 µg/mL

* * *

System: C33A cells
test: In vitro cytotoxicity, XTT, five days
assay.setup: read-out: C33A CC50
// reported CC50 per item
Value expressed in nM; do not type the unit.

* CCOC(=O)C(C)NP(=O)(COCCn1cnc2c(OC)nc(N)nc21)OCc1ccccc1 (single isomer, unassigned; isomer 1) [ABl2280 Isomer 1] | 200

Please examine the following record next.
# lookup: CC50 of CCOC(=O)C(C)NP(=O)(COCCn1cnc2c(OC)nc(N)nc21)OCc1ccccc1 (mixture of isomers) [ABl2280]
280
